# Tested on: rat heart tissue
# assay.remarks: GENECALLING differential gene expression analysis after dosing of serotonin modulating agents
# Format: in vivo, Sprague Dawley rats
# condition.context: CARDIOTOX 105, GenBank AF001334
parameter: Effects on Transcription Level: Cardiac calsequestrin (fold)
Write the number in fold without appending the unit.

- compound: "CCNC(C)Cc1cccc(C(F)(F)F)c1 (stereo not drawn) [fenfluramine]"
  system.under.test: "rat heart tissue"
  quantitative.readout: "−2.4"
- compound: "CNS(=O)(=O)Cc1ccc2[nH]cc(CCN(C)C)c2c1 [sumatriptan]"
  system.under.test: "rat heart tissue"
  quantitative.readout: "−2.9"
- compound: "CCN[C@@H](C)Cc1cccc(C(F)(F)F)c1 [dexfenfluramine]"
  system.under.test: "rat heart tissue"
  quantitative.readout: "−2.9"
- compound: "CN1C[C@H](C(=O)N[C@]2(C)O[C@@]3(O)[C@@H]4CCCN4C(=O)[C@H](Cc4ccccc4)N3C2=O)C[C@@H]2c3cccc4[nH]cc(c34)C[C@H]21 [dihydroergotamine]"
  system.under.test: "rat heart tissue"
  quantitative.readout: "−2.1"
- compound: "CNCCC(Oc1ccc(C(F)(F)F)cc1)c1ccccc1 (stereo not drawn) [fluoxetine]"
  system.under.test: "rat heart tissue"
  quantitative.readout: "−2.4"

Turning now to a further compound:
[Q] Which Effects on Transcription Level: Cardiac calsequestrin is listed for CC(C)CC(N(C)C)C1(c2ccc(Cl)cc2)CCC1 (stereo not drawn) [sibutramine] ?
[A] −2.5

Measured values drawn from patent US20040005537A1 for this set.
